- SYSTEM_TESTED: T1, human DLL4 extracellular domain (human, UniProt Q9NR61 27-529)
- T1 construct: purified recombinant ECD; biotin-labelled or 6xHis-tagged depending on the assay; also called huDLL4 ECD; hu DLL4 ECD
- ASSAY_COMMENT: binding ELISA, DLL4 ECD
Kindly supply the reported pEC50 values for the records listed here.
# reply with the number alone; pEC50 is -log10 of concentration in mol/L

Using the record for 1A11 rat anti-DLL4 monoclonal antibody (antibody, rat IgG1, V domains shown, rat IgG1/K hybridoma mAb; also called MC13-1A11.2E1; 1A11 (rat mAb)) VH: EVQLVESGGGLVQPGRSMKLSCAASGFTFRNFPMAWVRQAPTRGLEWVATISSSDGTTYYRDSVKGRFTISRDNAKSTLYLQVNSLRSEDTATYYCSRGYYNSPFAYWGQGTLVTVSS VL: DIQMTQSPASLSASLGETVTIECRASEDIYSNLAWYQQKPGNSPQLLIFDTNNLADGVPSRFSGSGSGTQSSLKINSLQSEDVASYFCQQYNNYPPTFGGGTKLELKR , report its pEC50.
10.22

Need pEC50, item 32C7 rat anti-DLL4 monoclonal antibody (antibody, rat IgG2a, V domains shown, rat IgG2a/k hybridoma mAb; also called MC10-32C7.5A4) VH: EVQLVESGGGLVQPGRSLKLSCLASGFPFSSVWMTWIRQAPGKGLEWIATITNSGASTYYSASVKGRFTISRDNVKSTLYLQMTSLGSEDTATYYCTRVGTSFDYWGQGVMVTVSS VL: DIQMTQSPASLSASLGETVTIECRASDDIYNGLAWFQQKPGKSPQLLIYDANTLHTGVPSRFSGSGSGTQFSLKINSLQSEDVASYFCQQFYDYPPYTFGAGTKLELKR
10.10

Query: pEC50; subject: 37D10 rat anti-DLL4 monoclonal antibody (antibody, rat IgG2a, V domains shown, rat IgG2a/k hybridoma mAb; also called 40B10; 37D10 = 40B10) VH: AVQLVESGGGLVQPKESLKISCAASGFTFSNAAMYWVRLAPGKGLEWVARIRTKPNNYATYYAESVKGRFTISRDDSKSMVYVQMDNLKTEDTAMYYCTAAPWRDSYAHVYWGQGVMVTVSS VL: DIQMTQSPPVLSASVGDRVTLSCKASQNIHKNLDWYQQKHGDAPKLLIYYTDHLQTGVPSRFSGSGSATDYTLTISSLQPEDVATYYCYQYNGGPFTFGSGTKLEIKR
9.92

Endpoint output: pEC50 of 38H12 rat anti-DLL4 monoclonal antibody (antibody, rat IgG2a, V domains shown, rat IgG2a/k hybridoma mAb; also called MC10-38H12.2G8; 38H12 rat mAb) VH: EVQLVESGGGLVQPGRSLKLSCAASGFTFSNYGMYWIRQAPTKGLQWVAFISHGGGITYYRDSVKGRFTISRDNAKSTLYLQMDSLRSEDTATYHCAALNWELGIDYWGQGVMVTVSS VL: DIQMTQSPASLSASLGETISIECRASEDIYSNLAWYQKKSGKSPQLLIYAANRLQDGVPSRFSGSGSGTQYSLKISGMQPEDEGDYFCLQGSKFPLTFGSGTKLEIKR . Value?
10.22
